# Assay Target: Renin (Homo sapiens)
# Sequence (P00797 whole entry): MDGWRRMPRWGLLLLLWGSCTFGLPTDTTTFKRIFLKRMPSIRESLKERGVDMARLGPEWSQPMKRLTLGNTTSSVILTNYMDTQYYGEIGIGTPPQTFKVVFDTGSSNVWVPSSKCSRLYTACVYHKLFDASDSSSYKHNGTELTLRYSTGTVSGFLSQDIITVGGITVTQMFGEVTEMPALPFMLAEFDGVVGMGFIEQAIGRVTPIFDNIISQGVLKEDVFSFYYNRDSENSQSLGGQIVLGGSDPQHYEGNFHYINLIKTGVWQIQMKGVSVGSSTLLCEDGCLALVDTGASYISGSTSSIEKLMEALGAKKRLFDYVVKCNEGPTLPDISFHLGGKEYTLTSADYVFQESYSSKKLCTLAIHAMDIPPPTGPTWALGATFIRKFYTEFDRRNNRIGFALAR
# Measurement Notes: Inhibition of human recombinant renin using DNP-Lys-His-Pro-Phe-His-Leu-Val-Ile-His-D,L-Amp as substrate after 3 hrs by fluorimetry
pIC50: −log10 of the molar value.
The entries below are paired with their reported pIC50.
Metric Name: pIC50

Chemical Smiles: CCC(=O)NCCc1ccccc1-c1ccc([C@H]2CNCC[C@@H]2c2ccn(C)c(=O)c2)c(Cl)c1
Value Reported: 8.32
//
Chemical Smiles: CC(=O)NCCc1ccccc1-c1ccc([C@H]2CNCC[C@@H]2c2ccc(F)c(F)c2)c(Cl)c1
Value Reported: 9.30
//
Chemical Smiles: CC(=O)NCCc1ccccc1-c1ccc([C@H]2CNCC[C@@]23OC(=O)c2cc(F)c(F)cc23)c(C)c1
Value Reported: 9.85
//
Chemical Smiles: COCC(=O)NCCc1ccccc1-c1ccc([C@H]2CNCC[C@@H]2c2ccn(C)c(=O)c2)c(Cl)c1
Value Reported: 7.13
